- system: DnaK (Escherichia coli)
- Sequence (P0A6Y8 2-638): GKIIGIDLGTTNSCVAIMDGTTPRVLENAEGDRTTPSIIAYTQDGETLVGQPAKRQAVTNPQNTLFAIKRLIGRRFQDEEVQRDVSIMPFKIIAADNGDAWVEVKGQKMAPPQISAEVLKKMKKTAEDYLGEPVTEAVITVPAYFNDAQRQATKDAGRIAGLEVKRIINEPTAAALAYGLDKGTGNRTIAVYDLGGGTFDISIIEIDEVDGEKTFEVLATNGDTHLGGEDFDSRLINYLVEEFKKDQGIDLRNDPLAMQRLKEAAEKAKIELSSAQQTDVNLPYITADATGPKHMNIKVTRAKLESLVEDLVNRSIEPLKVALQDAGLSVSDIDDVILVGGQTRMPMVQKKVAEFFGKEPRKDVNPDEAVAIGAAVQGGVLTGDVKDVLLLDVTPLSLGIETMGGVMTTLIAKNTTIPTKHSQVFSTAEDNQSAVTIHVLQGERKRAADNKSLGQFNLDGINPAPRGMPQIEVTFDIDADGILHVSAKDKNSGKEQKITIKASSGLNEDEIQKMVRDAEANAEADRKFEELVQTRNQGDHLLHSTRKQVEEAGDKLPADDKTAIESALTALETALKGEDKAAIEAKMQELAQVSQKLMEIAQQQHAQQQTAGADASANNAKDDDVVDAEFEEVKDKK
- assay.name: DnaK Inhibition Assay (DnaK induced refolding of denatured firefly luciferase)
- Type: biochemical, E. coli
- test.parameters: DnaK 200 nM, DnaJ 100 nM, GrpE 400 nM, read-out: DnaK IC50
Non-standard residues stand in square brackets, D forms with d. Residues, ends and D or L forms follow the SMILES beside them. *: point of attachment. NH(CH2)3Ph = c1ccc(CCCN*)cc1; Octanoyl = CCCCCCCC(=O)*; Orn = NCCC[C@H](N)C(=O)O; Piperidide = C1CCN(*)CC1; Boc = CC(C)(C)OC(=O)*; Bn = c1ccc(C*)cc1
observed.property: pIC50
Remember the convention: pIC50 equals -log10 of concentration in molar.

Solved entries (count: 5):
compound="CCCCCCCC(=O)N[C@@H](Cc1ccc(OCc2ccccc2)cc1)C(=O)N[C@@H](CC(C)C)C(=O)N1CCC[C@H]1C(=O)N[C@H](CCCNC(=N)N)C(=O)OC [Structure 26] (Octanoyl-Y(Bn)LP[dR]-OMe)" system="DnaK (Escherichia coli)" quantitative_result=4.52
compound="CC(=O)N[C@@H](Cc1ccc(OCc2ccccc2)cc1)C(=O)N[C@@H](CC(C)C)C(=O)N1CCC[C@H]1C(=O)O [Structure 3, Ac-Tyr(Bzl)-Leu-Pro-OH] (Ac-Tyr(Bn)-Leu-Pro-OH)" system="DnaK (Escherichia coli)" quantitative_result=3.96
compound="CC(C)C[C@H](NC(=O)[C@H](Cc1ccc(O)cc1)NC(=O)OC(C)(C)C)C(=O)N1CCC[C@H]1C(=O)N[C@@H](CCCNC(=N)N)C(=O)N1CCC[C@H]1C(=O)NCCCc1ccccc1 [Structure 12, Boc-Tyr-Leu-Pro-Arg-Pro-NH(CH2)3Ph] (Boc-YLPRP-{NH(CH2)3Ph})" system="DnaK (Escherichia coli)" quantitative_result=4.96
compound="CCCCCCCC(=O)N[C@@H](Cc1ccc(O)cc1)C(=O)N[C@@H](CC(C)C)C(=O)N1CCC[C@H]1C(=O)N[C@H](CCCNC(=N)N)C(=O)N1CCCCC1 [Structure 27] (Octanoyl-YLP[dR]-Piperidide)" system="DnaK (Escherichia coli)" quantitative_result=5.10
compound="CC(=O)N[C@@H](Cc1ccc(O)cc1)C(=O)N[C@@H](CC(C)C)C(=O)N1CCC[C@H]1C(=O)N[C@@H](CCCN)C(=O)N1CCC[C@H]1C(=O)NCCCc1ccccc1 [Structure 19, Ac-Tyr-Leu-Pro-Orn-Pro-NH(CH2)3Ph] (Ac-YLP[Orn]P-{NH(CH2)3Ph})" system="DnaK (Escherichia coli)" quantitative_result=4.40

Now for the compound whose pIC50 we want.
Fill in the blank: the reported pIC50 of CCCCCCCC(=O)N[C@@H](Cc1ccc(OCc2ccccc2)cc1)C(=O)N[C@@H](CC(C)C)C(=O)N1CCC[C@H]1C(=O)N1CCCC(CNC(=N)N)C1 (stereo partly drawn) is ____.
4.64

The measured values listed here are drawn from patent US20100087466A1.
